// reported IC50 for each item listed
- target under test: calmodulin (Homo sapiens, UniProt P0DP23)
- assay: calcium-dependent phosphodiesterase assay (calmodulin activity)
- Format: biochemical
- measurement context: Table I; assayed at 75, 50 and 12.5 μM, average of repeated assays; read-out: Average IC50
Square brackets hold non-standard residues; d marks the D form. Peptide text beside a SMILES is read from it.
attribute measured: IC50

molecule	val
CC[C@@H](C)[C@@H](NC(=O)[C@@H](Cc1c[nH]c2ccccc12)NC(=O)[C@@H](CC(C)C)NC(C)=O)C(=O)N[C@@H](C(=O)N[C@H](Cc1c[nH]cn1)C(=O)N[C@H](CCCNC(=N)N)C(N)=O)[C@H](C)CC (Ac-[dL][dW][dI][dI][dH][dR]-NH2)	5.1 µM
CC[C@@H](C)[C@@H](NC(=O)[C@@H](Cc1c[nH]c2ccccc12)NC(=O)[C@@H](CC(C)C)NC(C)=O)C(=O)N[C@@H](C(=O)N[C@H](Cc1c[nH]cn1)C(=O)N[C@H](Cc1c[nH]c2ccccc12)C(N)=O)[C@H](C)CC (Ac-[dL][dW][dI][dI][dH][dW]-NH2)	8.6 µM
CC[C@@H](C)[C@@H](NC(=O)[C@@H](CCC(N)=O)NC(=O)[C@@H](CC(C)C)NC(C)=O)C(=O)N[C@H](Cc1c[nH]cn1)C(=O)N[C@H](CC(C)C)C(=O)N[C@H](CCCNC(=N)N)C(N)=O (Ac-[dL][dQ][dI][dH][dL][dR]-NH2)	70 µM
CC[C@@H](C)[C@@H](NC(=O)[C@@H](Cc1c[nH]c2ccccc12)NC(=O)[C@@H](CC(C)C)NC(C)=O)C(=O)N[C@H](Cc1c[nH]cn1)C(=O)N[C@H](Cc1c[nH]cn1)C(=O)N[C@H](Cc1c[nH]c2ccccc12)C(N)=O (Ac-[dL][dW][dI][dH][dH][dW]-NH2)	8.5 µM
CC[C@@H](C)[C@@H](NC(=O)[C@@H](CCC(N)=O)NC(=O)[C@@H](CC(C)C)NC(C)=O)C(=O)N[C@H](Cc1c[nH]cn1)C(=O)N[C@H](Cc1c[nH]cn1)C(=O)N[C@H](Cc1c[nH]c2ccccc12)C(N)=O (Ac-[dL][dQ][dI][dH][dH][dW]-NH2)	27 µM
CC[C@@H](C)[C@@H](NC(=O)[C@@H](CCC(N)=O)NC(=O)[C@@H](CC(C)C)NC(C)=O)C(=O)N[C@@H](C(=O)N[C@H](Cc1c[nH]cn1)C(=O)N[C@H](CCCNC(=N)N)C(N)=O)[C@H](C)CC (Ac-[dL][dQ][dI][dI][dH][dR]-NH2)	35 µM
CC(=O)N[C@H](CC(C)C)C(=O)N[C@H](Cc1c[nH]c2ccccc12)C(=O)N[C@H](CCCNC(=N)N)C(=O)N[C@H](Cc1c[nH]cn1)C(=O)N[C@H](Cc1c[nH]cn1)C(=O)N[C@H](CCCNC(=N)N)C(N)=O (Ac-[dL][dW][dR][dH][dH][dR]-NH2)	8.1 µM
CC[C@@H](C)[C@@H](NC(=O)[C@@H](CCCNC(=N)N)NC(=O)[C@@H](Cc1c[nH]c2ccccc12)NC(=O)[C@@H](CC(C)C)NC(C)=O)C(=O)N[C@H](CC(C)C)C(=O)N[C@H](CCCNC(=N)N)C(N)=O (Ac-[dL][dW][dR][dI][dL][dR]-NH2)	3.9 µM
